Below, each entry is listed alongside its reported DC50.
- tgt: SMARCA2 (Homo sapiens, UniProt P51531)
- Sequence (P51531 whole entry): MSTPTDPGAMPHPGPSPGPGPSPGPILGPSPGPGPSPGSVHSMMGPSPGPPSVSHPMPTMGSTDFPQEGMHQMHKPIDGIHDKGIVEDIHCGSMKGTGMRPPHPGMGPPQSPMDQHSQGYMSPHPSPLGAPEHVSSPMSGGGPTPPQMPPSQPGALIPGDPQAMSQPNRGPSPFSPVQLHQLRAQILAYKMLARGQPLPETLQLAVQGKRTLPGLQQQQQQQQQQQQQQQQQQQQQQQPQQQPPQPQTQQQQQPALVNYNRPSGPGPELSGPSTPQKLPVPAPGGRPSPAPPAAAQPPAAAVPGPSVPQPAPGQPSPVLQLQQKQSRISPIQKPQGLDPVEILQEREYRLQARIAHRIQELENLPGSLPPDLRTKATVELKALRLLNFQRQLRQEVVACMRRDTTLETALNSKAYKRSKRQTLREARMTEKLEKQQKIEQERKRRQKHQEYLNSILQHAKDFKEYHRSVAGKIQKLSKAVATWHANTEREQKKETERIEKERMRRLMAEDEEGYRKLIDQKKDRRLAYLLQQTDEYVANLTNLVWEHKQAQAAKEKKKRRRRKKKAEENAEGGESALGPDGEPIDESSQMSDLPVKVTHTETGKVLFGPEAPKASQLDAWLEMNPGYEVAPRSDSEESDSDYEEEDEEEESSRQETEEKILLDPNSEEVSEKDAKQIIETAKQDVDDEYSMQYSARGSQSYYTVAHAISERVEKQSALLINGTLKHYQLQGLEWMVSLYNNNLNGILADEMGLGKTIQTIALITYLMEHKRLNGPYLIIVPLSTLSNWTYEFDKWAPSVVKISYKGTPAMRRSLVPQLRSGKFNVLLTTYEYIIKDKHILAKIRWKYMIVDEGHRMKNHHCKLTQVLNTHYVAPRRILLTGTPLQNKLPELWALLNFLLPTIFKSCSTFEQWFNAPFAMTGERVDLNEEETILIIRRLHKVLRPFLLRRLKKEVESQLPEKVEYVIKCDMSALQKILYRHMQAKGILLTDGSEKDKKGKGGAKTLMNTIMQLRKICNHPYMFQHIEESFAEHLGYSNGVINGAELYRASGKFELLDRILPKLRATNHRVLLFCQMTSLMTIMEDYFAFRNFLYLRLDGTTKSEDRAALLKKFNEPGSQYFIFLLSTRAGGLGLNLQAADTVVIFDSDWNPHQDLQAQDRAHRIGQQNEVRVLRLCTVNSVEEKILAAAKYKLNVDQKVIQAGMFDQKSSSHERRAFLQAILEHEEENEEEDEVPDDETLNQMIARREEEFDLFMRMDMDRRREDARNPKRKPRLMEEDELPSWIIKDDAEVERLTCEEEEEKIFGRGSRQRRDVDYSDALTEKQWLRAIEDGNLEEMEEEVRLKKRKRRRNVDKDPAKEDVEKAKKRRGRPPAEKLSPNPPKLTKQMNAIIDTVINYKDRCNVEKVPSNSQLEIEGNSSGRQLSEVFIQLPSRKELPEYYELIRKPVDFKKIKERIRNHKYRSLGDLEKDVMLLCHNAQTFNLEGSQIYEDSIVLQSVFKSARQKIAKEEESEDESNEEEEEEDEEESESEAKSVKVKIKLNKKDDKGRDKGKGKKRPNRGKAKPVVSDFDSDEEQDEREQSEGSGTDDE
- experiment.summary: SMARCA2 Western blot degradation in MV4-11 cells
- Assay type: cell-based
- Set-up: SMARCA2/SMARCA4 protein degradation selectivity in MV4-11 cells; endogenous in cells; host or cells: MV4-11
- condition.label: MV4-11 cells, 24 h; read-out: SMARCA2 MSD MV411 degradation 24 h: Mean external-Abs DC50
experimental.endpoint: DC50

{"columns": ["compound", "experimental.endpoint", "experimental.result"],
 "data": [
  ["C#Cc1ccc(CNC(=O)[C@@H]2C[C@@H](O)CN2C(=O)[C@@H](NC(=O)C2CCC3(CC2)CC(N2CCC(N4CCC[C@H](C(=O)N5CCN6c7cc(-c8ccccc8O)nnc7NC[C@H]6C5)C4)CC2)C3)C(C)(C)C)cc1 (single isomer, unassigned) [I-90]", "DC50", "10 to 100 nM"],
  ["C#Cc1ccc(CNC(=O)[C@@H]2C[C@@H](O)CN2C(=O)[C@@H](N(CCOC)C(=O)N2CC3(CC(N4CCC(c5cnc(N6CCc7[nH]c8nnc(-c9ccccc9O)cc8c7[C@H]6C)nc5)CC4)C3)C2)C(C)(C)C)cc1 [I-140]", "DC50", "> 100 nM"],
  ["C#Cc1ccc(CNC(=O)[C@@H]2C[C@@H](O)CN2C(=O)[C@@H](NC(=O)N2CCN(C[C@H]3CC[C@@H](N4CCC(N5CCN6c7cc(-c8ccccc8O)nnc7NC[C@H]6C5)CC4)CC3)CC2)C(C)(C)C)cc1 [I-255]", "DC50", "10 to 100 nM"]
]}

---

- tgt: SMARCA2 (Homo sapiens, UniProt P51531)
- experiment.summary: SMARCA2 Western blot degradation in MV4-11 cells
- Type: cell-based
- Set-up: SMARCA2/SMARCA4 protein degradation selectivity in MV4-11 cells; endogenous in cells; host or cells: MV4-11
- condition.label: MV4-11 cells, 24 h; read-out: SMARCA2 MSD MV411 degradation 24 h: Mean external-Abs DC50

{"columns": ["compound", "DC50"],
 "data": [
  ["Cc1ncsc1-c1ccc(CNC(=O)[C@@H]2C[C@@H](O)CN2C(=O)[C@@H](NC(=O)C2CC3(C2)CC(N2CCC(N4CCC(N5CCN6c7cc(-c8ccccc8O)nnc7NC[C@H]6C5)CC4)CC2)C3)C(C)(C)C)cc1 (stereo partly shown) [I-75]", "1 to 10 nM"],
  ["Cc1ncsc1-c1ccc(CNC(=O)[C@@H]2C[C@@H](O)CN2C(=O)C(c2cc(N3CC4(CC(N5CCC(c6cnc(N7CCc8[nH]c9nnc(-c%10ccccc%10O)cc9c8[C@H]7C)nc6)CC5)C4)C3)no2)C(C)C)cc1 (single isomer, unassigned) [I-10]", "< 1 nM"],
  ["C#Cc1ccc(CNC(=O)[C@@H]2C[C@@H](O)CN2C(=O)[C@@H](NC(=O)C2CCC3(CC2)CC(N2CCC(c4cnc(N5CCN6c7cc(-c8ccccc8O)nnc7NC[C@H]6C5)nc4)CC2)C3)C2CCNCC2)cc1 (stereo partly shown) [I-132]", "> 100 nM"],
  ["C#Cc1ccc(CNC(=O)[C@@H]2C[C@@H](O)CN2C(=O)[C@@H](NC(=O)[C@H]2CC3(C2)C[C@H](N2CCN(C(=O)CCN4CCN5c6cc(-c7ccccc7O)nnc6NC[C@H]5C4)CC2)C3)C(C)(C)C)cc1 (stereo partly shown) [I-274]", "1 to 10 nM"]
]}
